System: Trypanosoma brucei Lister 427 VSG221 with APOL1 G1 recombinant protein
Assay: APOL1 G1 trypanosome cell rescue assay (Example B5)
Assay type: cell-based
Conditions: Trypanosoma brucei, 20 h, read-out: APOL1 G1 Trypanosome Rescue EC50, Trypanosoma brucei Lister 427 VSG221 with APOL1 G1 recombinant protein, 20 hours, CellTiter-Glo; geometric mean of at least 2 assay runs; † = single assay run
value kind: EC50
The answer consists of two parts: a number and, after it, its unit.

C[C@]1(O)C[C@@H](n2c(=O)n(CO)c3cc(OCCN4CCC5(CC4)C(=O)Nc4ccc(Cl)cc45)cc(C(F)(F)F)c32)C1 ... 0.00603 µM
CC[C@]1(O)C[C@H](N2C(=O)CCc3cc(OCCN4CCC5(CC4)C(=O)Nc4ccc(Cl)cc45)cnc32)C1 (single isomer, unassigned) ... 0.0692 µM

Now let's try a different one.
Request: Give the reported EC50 for this compound. `CS(=O)(=O)c1ccc(OCCN2CCC3(CC2)C(=O)Nc2ccc(C#N)cc23)cc1C(F)F`
Response: 0.113 µM

====

Target: APOL1 G2 (Homo sapiens, UniProt O14791, DEL388-389)
Construct: expressed in transfected cells; host or cells: HEK293 T-REx clonal line stably expressing GCaMP6f (HEK T-REx/GCaMP6f/APOL1 G2 K6.3), doxycycline induced
Sequence (O14791 with tags, fused parts or gaps DEL388-389): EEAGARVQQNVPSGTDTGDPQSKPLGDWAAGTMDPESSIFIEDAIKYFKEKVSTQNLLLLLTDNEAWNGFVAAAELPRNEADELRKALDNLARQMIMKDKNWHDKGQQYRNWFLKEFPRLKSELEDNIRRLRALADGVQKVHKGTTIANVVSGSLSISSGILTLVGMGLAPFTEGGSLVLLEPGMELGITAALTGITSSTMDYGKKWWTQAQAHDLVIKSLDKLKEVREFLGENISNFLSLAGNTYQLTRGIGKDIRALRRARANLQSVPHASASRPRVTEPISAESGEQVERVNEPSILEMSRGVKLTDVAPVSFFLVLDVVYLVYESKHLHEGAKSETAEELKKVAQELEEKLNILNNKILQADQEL
Experiment: APOL1-mediated calcium transport (calcium influx) assay, HEK T-REx/GCaMP6f/APOL1 G2 K6.3 cells, FLIPR TETRA
Type: cell-based
Conditions: prevention of calcium influx; geometric mean of at least 2 assay runs; † = average of a technical replicate from a single assay run
value kind: AC50
The answer consists of two parts: a number and, after it, its unit.

C[C@]1(O)C[C@@H](n2cnc3cc(OCCN4CCC5(CC4)C(=O)Nc4ccc(Cl)cc45)cc(C#N)c32)C1 ... 603 nM

I need AC50 for every entry listed below, if you could help.
1. C[C@]1(O)C[C@@H](n2nnc3cc(OCCN4CCC5(CC4)C(=O)Nc4ccc(Cl)cc45)cnc32)C1
2. [2H]C([2H])(Oc1cnc2c(c1)CCC(=O)N2[C@H]1C[C@](O)(C([2H])([2H])[2H])C1)C([2H])([2H])N1CCC2(CC1)C(=O)Nc1ccc(Cl)cc12

Response:
1. 552 nM
2. 943 nM

Request: Give the reported AC50 for this compound. `O=C1Nc2ccc(Cl)cc2C12CCN(CCOc1cnc(C3(O)COC3)nc1)CC2`
Response: 435 nM

====

Tested on: HEK293 cells overexpressing APOL1 G2
Test: APOL1 G2 HEK293 cell rescue assay (reversal of cell death caused by overexpression of APOL1)
Assay type: cell-based
Conditions: Homo sapiens, HEK293, HEK293 overexpressing APOL1 G2; geometric mean of at least 2 assay runs; † = single assay run
For each of the compounds below, state its EC50.
One number for each entry, in µM.

Some compounds with known EC50 results, for comparison:
CS(=O)(=O)c1ccc(OCCN2CCC3(CC2)C(=O)Nc2c(C#N)cc(Cl)cc23)cc1 ... 1.76
C[C@@H](CN1CCC2(CC1)C(=O)Nc1ccc(Cl)cc12)Oc1ccc(S(C)(=O)=O)cc1 (single isomer, unassigned) ... 1.7
C[C@]1(O)C[C@@H](n2nnc3cc(OCCN4CCC5(CC4)C(=O)Nc4ccc(Cl)cc45)cnc32)C1 ... 0.0544

I need EC50 for every entry listed below, if you could help.
1. CC(C)(c1ccc(OCCN2CCC3(CC2)C(=O)Nc2ccc(C#N)cc23)cn1)S(C)(=O)=O
2. CN1C(=O)C2(CCN(CCOc3ccc(-c4cnn(C)c4)cc3)CC2)c2ccccc21
3. C[C@]1(O)C[C@@H](n2c(=O)ccc3cc(OCCN4CCC5(CC4)C(=O)Nc4ccc(OC(F)F)cc45)cnc32)C1

Response:
1: 0.13; 2: 0.81; 3: 0.0341

====

For each of the compounds below, state its EC50.
System: HEK293 cells overexpressing APOL1 G2
Experiment: APOL1 G2 HEK293 cell rescue assay (reversal of cell death caused by overexpression of APOL1)
Type: cell-based
Conditions: Homo sapiens, HEK293, HEK293 overexpressing APOL1 G2; geometric mean of at least 2 assay runs; † = single assay run
The answer consists of two parts: a number and, after it, its unit.

Some compounds with known EC50 results, for comparison:
CS(=O)(=O)C1(c2ccc(OCCN3CCC4(CC3)C(=O)Nc3ccc(Cl)cc34)cc2)CCC1 [Compound 180] ... 22.1 nM
CC1(O)CN(c2ncc(OCCN3CCC4(CC3)C(=O)Nc3ccc(Cl)cc34)cn2)C1 [Compound 300] ... 100 nM
CS(=O)(=O)C1(c2ccc(OCCN3CCC4(CC3)C(=O)Nc3ccc(Cl)cc34)cc2)CC2(COC2)C1 [Compound 182] ... 99.6 nM
CCC1(O)CN(c2ncc(OCCN3CCC4(CC3)C(=O)Nc3ccc(Cl)cc34)cn2)C1 [Compound 397] ... 45.9 nM
CS(=O)(=O)c1ccc(OCCN2CCC3(CC2)C(=O)Nc2ccc(Cl)cc23)cc1Cl [Compound 155] ... 26.2 nM

I need EC50 for every entry listed below, if you could help.
1. C[C@]1(O)C[C@@H](N2C(=O)CCc3cc(OCCN4CCC5(CC4)C(=O)Nc4c(I)cc(Cl)cc45)cnc32)C1 [Compound 329]
2. CN1CCc2cc(OCCN3CCC4(CC3)C(=O)Nc3ccc(Cl)cc34)ccc2S1(=O)=O [Compound 153]

Response:
1: 56.9 nM; 2: 22.1 nM

====

For each of the compounds below, state its pEC50.
Test system: HEK293 clonal cell line overexpressing APOL1 G1
Test: APOL1 G1 HEK293 cell rescue assay (Example B3)
Format: cell-based
Conditions: Homo sapiens, HEK293, HEK293 clonal line overexpressing APOL1 G1; geometric mean of at least 2 runs; † = single run; ¥ = concentration at 50% rescue estimated (no sigmoidal curve)
Numbers only, as −log10 of the molar value.

Some compounds with known pEC50 results, for comparison:
CC(COc1ccc2c(c1)CCC(=O)N2C)N1CCC2(CC1)C(=O)Nc1ccc(C#N)cc12 (centres unmarked) ... 5.59
CS(=O)(=O)C1(c2ccc(OCCN3CCC4(CC3)C(=O)Nc3ccc(C#N)cc34)cc2)CC1 ... 6.61
CN(C)C(=O)c1ccc(OCCN2CCC3(CC2)C(=O)Nc2ccc(Cl)cc23)cc1F ... 6.49
C[C@]1(O)C[C@@H](n2cnc3cc(OCCN4CCC5(CC4)C(=O)Nc4ccc(Cl)cc45)cc(C#N)c32)C1 ... 7.34
CC(C)(O)c1ncc(OCCN2CCC3(CC2)C(=O)Nc2ccc(Cl)cc23)cn1 ... 6.76
O=C1CCc2cc(OCCN3CCC4(CC3)C(=O)Nc3ccc(Cl)cc34)cnc2N1[C@H]1C[C@H](O)C1 ... 6.86
CC1(C)OCC(c2ncc(OCCN3CCC4(CC3)C(=O)Nc3ccc(Cl)cc34)cn2)O1 (centres unmarked) ... 7.02

Now let's try a different one.
Request: Give the reported pEC50 for this compound. `CN1C(=O)CCc2cc(OCCN3CCC4(CC3)C(=O)Nc3ccc(C#N)cc34)cnc21`
Response: 6.27

====

For each of the compounds below, state its EC50.
Test system: HEK293 clonal cell line overexpressing APOL1 G1
Assay: APOL1 G1 HEK293 cell rescue assay (Example B3)
Format: cell-based
Details: Homo sapiens, HEK293, HEK293 clonal line overexpressing APOL1 G1; geometric mean of at least 2 runs; † = single run; ¥ = concentration at 50% rescue estimated (no sigmoidal curve)
Experimental: Compounds were also assayed in a HEK293 clonal cell line overexpressing APOL1 G1 by a method similar to that shown in Example B2 above. Unless otherwise specified, EC50 values are reported as the geometric mean of at least 2 assay runs on separate days. Each run represents the average of a technical replicate, where each compound was assayed twice in the same plate. […]
One number for each entry, in nM.

Some compounds with known EC50 results, for comparison:
C[C@]1(O)C[C@@H](n2c(=O)ccc3cc(OCCN4CCC5(CC4)C(=O)Nc4ccc(OC(F)F)cc45)cnc32)C1 ... 98.2
NC(=O)c1ccc(OCCN2CCC3(CC2)C(=O)Nc2ccc(Cl)cc23)cc1C(F)F ... 70.6
CC(=O)N1CCCc2cc(OCCN3CCC4(CC3)C(=O)Nc3ccc(Cl)cc34)ccc21 ... 330

I need EC50 for every entry listed below, if you could help.
1. C[C@]1(O)C[C@@H](n2c(=O)n(CO)c3cc(OCCN4CCC5(CC4)C(=O)Nc4ccc(Cl)cc45)cc(C(F)(F)F)c32)C1
2. CS(=O)(=O)c1ccc(OCCN2CCC3(CC2)C(=O)N(CCO)c2ccc(Br)cc23)cc1
3. Cc1nc2cc(OCCN3CCC4(CC3)C(=O)Nc3ccc(Cl)cc34)cc(C(F)(F)F)c2n1[C@H]1C[C@@](C)(O)C1

Response:
1. 14.3
2. 609
3. 15.6
